Where do the numbers come from? From PubChem BioAssay (EPA / NIEHS).

PROTOCOL_DESCRIPTION: ATG_NRF2_ARE_CIS: Attagene CIS-FACTORIAL HepG2 Assay for human Nuclear Factor Erythroid 2 Related Factor 2 (NFR2) response to Antioxidant Response Elements (ARE) (AID 2282992)
ASSAY_SETUP: HepG2 Attagene ARE/NRF2 reporter, transcription factor activity; actives raise or lower the signal
Calls of active or inactive are those of the source. The calls were made as follows: active = hit-call score of the fitted dose curve at least 0.9, where 1 is the maximum; inactive = score below 0.9.
Answer with one of the outcomes given here: label 1 for active, label 0 for inactive

The following molecules have reported results that may help.
1) CCCCCCCCc1ccc(S(=O)(=O)O)cc1 ... label 1
2) OCCCCC(O)CO (stereo not given) ... label 0

Query string: I'd appreciate the recorded outcome for `CC(C)(CO)[C@@H](O)C(=O)NCCC(=O)O` from this test.
Result string: label 0

Query string: Any idea what this test logged for `OC[C@H]1O[C@@H](Oc2ccc(O)cc2)[C@H](O)[C@@H](O)[C@@H]1O` ?
Result string: label 0

Query string: Entry `O=[N+]([O-])c1cccc(Cl)c1` : call = ?
Result string: label 0
